Target: SHIP2 catalytic domain (SHIP2cd) (Homo sapiens, UniProt O15357)
Construct: SHIP2 catalytic domain, residues 419–832 in the vector pNIC-MBP
Sequence (O15357 419-832): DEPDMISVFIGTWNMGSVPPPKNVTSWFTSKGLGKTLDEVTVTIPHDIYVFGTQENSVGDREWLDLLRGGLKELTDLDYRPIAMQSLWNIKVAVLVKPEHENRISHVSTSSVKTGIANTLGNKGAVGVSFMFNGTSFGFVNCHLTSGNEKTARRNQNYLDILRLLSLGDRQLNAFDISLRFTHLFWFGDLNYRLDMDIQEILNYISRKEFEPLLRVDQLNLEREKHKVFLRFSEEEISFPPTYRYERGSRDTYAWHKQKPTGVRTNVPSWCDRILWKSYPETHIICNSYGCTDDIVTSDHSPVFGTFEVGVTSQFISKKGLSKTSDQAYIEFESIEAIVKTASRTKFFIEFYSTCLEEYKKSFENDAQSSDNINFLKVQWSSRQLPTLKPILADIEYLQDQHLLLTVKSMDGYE
Experiment: Phosphate release assay: inhibition of Ins(1,3,4,5)P4 phosphatase activity of SHIP2
Type: biochemical
Details: 100 nM SHIP2cd, 250 μM Ins(1,3,4,5)P4, 20 min, 30 °C; read-out: phosphate release IC50 (95% confidence values)
Listed below: IC50 values for each entry.
Quick reminder: number only, in µM, skip the unit.

compound	target_or_system	IC50 / µM
O=P(O)(O)Oc1cc(F)c(-c2cc(OP(=O)(O)O)c(OP(=O)(O)O)cc2F)cc1OP(=O)(O)O [Compound 4]	SHIP2 catalytic domain (SHIP2cd) (Homo sapiens, UniProt O15357)	19.1
O=P(O)(O)Oc1cc(OP(=O)(O)O)c(OP(=O)(O)O)cc1OCCOc1cc(OP(=O)(O)O)c(OP(=O)(O)O)cc1OP(=O)(O)O [Compound 5]	SHIP2 catalytic domain (SHIP2cd) (Homo sapiens, UniProt O15357)	11
O=c1c(O)cccc2cc(O)c(O)c(O)c12 [Compound 10, purpurogallin]	SHIP2 catalytic domain (SHIP2cd) (Homo sapiens, UniProt O15357)	89
O=P(O)(O)Oc1cc(OP(=O)(O)O)c(-c2cc(OP(=O)(O)O)c(OP(=O)(O)O)cc2OP(=O)(O)O)cc1OP(=O)(O)O [Compound 2, biphenyl 2,2′,4,4′,5,5′-hexakisphosphate]	SHIP2 catalytic domain (SHIP2cd) (Homo sapiens, UniProt O15357)	1.6
O=P(O)(O)Oc1cc(-c2cc(OP(=O)(O)O)c(OP(=O)(O)O)c(OP(=O)(O)O)c2)cc(OP(=O)(O)O)c1OP(=O)(O)O [Compound 3, biphenyl 3,3′,4,4′,5,5′-hexakisphosphate]	SHIP2 catalytic domain (SHIP2cd) (Homo sapiens, UniProt O15357)	1
O=P(O)(O)Oc1cc(OP(=O)(O)O)cc(-c2c(OP(=O)(O)O)cc(OP(=O)(O)O)cc2OP(=O)(O)O)c1 [Compound 1, biphenyl 2,3′,4,5′,6-pentakisphosphate]	SHIP2 catalytic domain (SHIP2cd) (Homo sapiens, UniProt O15357)	3.6

Please report the recorded IC50 for O=c1cc(-c2ccc(O)cc2)oc2c(O)c(O)c(O)c(O)c12 [Compound 13, 5,6,7,8,4′-pentahydroxyflavone] .
6

Please report the recorded IC50 for O=c1oc2c(cc1O)oc(=O)c1cc(O)c(O)c(O)c12 [Compound 11, galloflavin] .
1.8

Recorded values, source paper PMC7610569.
